From: patent US5395947A

For each of the compounds below, state its Number of dead mice for 7 days.
Test system: ICR mice
Assay: Acute toxicity test
Assay type: in vivo
Conditions: female, 41.3 mg/kg i.p.
Method: 7-week-old ICR mice(male: 34±2 g; female: 31±2 g) were fed with solid food and water under the condition of 23±1° C. temperature and 65±5% humidity before the test. Each treatment group consisted of 6 mice. The test compounds were administered intraperitoneally. For 7 days after the administration, the appearance and the fate of the tested animals were recorded. The dead animals were subjected to autopsy and their visible pathological changes were observed. […]

CCC1(CC)OC2C[NH2+][Pt-2]3([NH2+]CC2O1)[O]CC(=O)[O]3 (centres unmarked)    0/6

Please give Number of dead mice for 7 days for each item listed below.
1. CCC1(C)OC2C[NH2+][Pt-2]3([NH2+]CC2O1)[O]CC(=O)[O]3 (centres unmarked)
2. CC1[O][Pt][O]C1=O.NCC1OC2(CCCC2)OC1CN (centres unmarked)
3. CC(C)C1OC(CN)C(CN)O1.CC1[O][Pt][O]C1=O (centres unmarked)
4. CC1[O][Pt][O]C1=O.CCC1OC(CN)C(CN)O1 (centres unmarked)

A:
["2/6", "0/6", "2/6", "3/6"]
